B1: tRNA (parent)
chain: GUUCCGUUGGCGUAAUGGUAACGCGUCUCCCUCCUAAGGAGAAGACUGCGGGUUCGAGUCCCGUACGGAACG

- Variants of: B1
- PROCEDURE SUMMARY: yeast fitness relative to wild type (ratio to wild type); higher = fitter; tRNA-Arg(CCU), competitive growth, 37 C, YPD
This sample holds only a part of the variants without activity.
I would appreciate it if you labelled entries fulfilled when yeast fitness is 0.7 or higher, otherwise not fulfilled.

{"VARIANT ID": "U2C C46U A65U", "DISCRETE LABEL": "fulfilled"}
{"VARIANT ID": "G23A G52A", "DISCRETE LABEL": "not fulfilled"}
{"VARIANT ID": "U59A A70C", "DISCRETE LABEL": "fulfilled"}
{"VARIANT ID": "U3G G41C G51C A57G", "DISCRETE LABEL": "not fulfilled"}
{"VARIANT ID": "U8A C29A", "DISCRETE LABEL": "not fulfilled"}
{"VARIANT ID": "U64A", "DISCRETE LABEL": "fulfilled"}
{"VARIANT ID": "U16A C24G G56A", "DISCRETE LABEL": "not fulfilled"}
{"VARIANT ID": "C22U G52C G68A", "DISCRETE LABEL": "not fulfilled"}
{"VARIANT ID": "C27A G38C", "DISCRETE LABEL": "not fulfilled"}
{"VARIANT ID": "C11U A21G U59A C62G", "DISCRETE LABEL": "not fulfilled"}
{"VARIANT ID": "U8C A15U G25A C34G G58C", "DISCRETE LABEL": "not fulfilled"}
{"VARIANT ID": "G10C A20U", "DISCRETE LABEL": "fulfilled"}
{"VARIANT ID": "G25C C29A G52A", "DISCRETE LABEL": "not fulfilled"}
{"VARIANT ID": "U59A", "DISCRETE LABEL": "fulfilled"}
{"VARIANT ID": "A15C G23C C60U", "DISCRETE LABEL": "not fulfilled"}
{"VARIANT ID": "U2C C11A A69U", "DISCRETE LABEL": "not fulfilled"}
{"VARIANT ID": "C30U A37C C60U", "DISCRETE LABEL": "not fulfilled"}
{"VARIANT ID": "U13C G23C C30G A65C", "DISCRETE LABEL": "not fulfilled"}
